TARGET_OR_SYSTEM: SIRT1 (Homo sapiens)
TEST_NAME: Trp mass spectrometry assay of SIRT1 activity
Assay type: biochemical
RUN_CONDITIONS: Trp assay; percent maximum fold activation; read-out: Trp % Fold Act
PROPERTY_MEASURED: Emax

[[record]]
smiles_str = "Cc1nc2ccc(N3CC[C@H](N(C)C)C3)nn2c1C(=O)Nc1cccnn1"
recorded_measurement = "< 350%"

[[record]]
smiles_str = "Cc1ncccc1C(=O)Nc1cnc2ccc(-c3ccccc3C(F)(F)F)nn12"
recorded_measurement = "< 350%"

[[record]]
smiles_str = "O=C(Nc1cnn2ccc(-c3ccccc3C(F)(F)F)nc12)c1ccncc1"
recorded_measurement = "< 350%"

[[record]]
smiles_str = "CN(C)[C@H]1CCN(c2ccc3ncc(C(=O)Nc4ccccn4)n3n2)C1"
recorded_measurement = "≥ 350%"

[[record]]
smiles_str = "Cc1nc2c(OC[C@H](O)CO)cc(-c3ccccc3C(F)(F)F)nn2c1C(=O)Nc1cccnn1"
recorded_measurement = "≥ 350%"


* * *

TARGET_OR_SYSTEM: SIRT1 (Homo sapiens, UniProt Q96EB6)
Sequence (Q96EB6 whole entry): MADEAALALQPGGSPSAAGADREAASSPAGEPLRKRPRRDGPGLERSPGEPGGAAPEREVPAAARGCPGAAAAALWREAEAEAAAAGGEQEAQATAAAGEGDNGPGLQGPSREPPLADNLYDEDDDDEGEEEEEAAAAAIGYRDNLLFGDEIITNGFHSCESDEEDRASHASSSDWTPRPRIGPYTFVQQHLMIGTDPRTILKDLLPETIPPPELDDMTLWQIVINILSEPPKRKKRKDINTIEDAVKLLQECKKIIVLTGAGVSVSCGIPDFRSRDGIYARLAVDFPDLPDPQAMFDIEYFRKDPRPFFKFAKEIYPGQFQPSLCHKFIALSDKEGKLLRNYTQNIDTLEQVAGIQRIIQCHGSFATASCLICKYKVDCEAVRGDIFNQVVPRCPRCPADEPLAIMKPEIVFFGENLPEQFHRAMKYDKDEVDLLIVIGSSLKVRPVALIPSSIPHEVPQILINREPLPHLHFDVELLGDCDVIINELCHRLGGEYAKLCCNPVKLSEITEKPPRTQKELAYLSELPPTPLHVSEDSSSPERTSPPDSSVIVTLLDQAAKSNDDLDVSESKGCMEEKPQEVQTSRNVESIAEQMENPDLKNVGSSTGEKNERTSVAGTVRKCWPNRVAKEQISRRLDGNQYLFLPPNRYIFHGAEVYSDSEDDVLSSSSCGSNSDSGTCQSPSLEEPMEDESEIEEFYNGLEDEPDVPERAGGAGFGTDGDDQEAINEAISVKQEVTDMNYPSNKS
TEST_NAME: TAMRA based mass spectrometry assay of SIRT1 activity
Type: biochemical
RUN_CONDITIONS: TAMRA assay; concentration giving 150% activation of SIRT1
PROPERTY_MEASURED: TAMRA EC1.5 (μM)

[[record]]
smiles_str = "Cc1cccnc1C(=O)Nc1cnn2ccc(-c3ccccc3C(F)(F)F)nc12"
property_measured = "TAMRA EC1.5 (μM)"
recorded_measurement = "A (EC1.5<1 μM)"

[[record]]
smiles_str = "Cc1nc2ccc(-c3cccc(F)c3)nn2c1C(=O)Nc1cccnn1"
property_measured = "TAMRA EC1.5 (μM)"
recorded_measurement = "B (EC1.5 1-25 μM)"

[[record]]
smiles_str = "COc1cccc(NC(=O)c2cnc3ccc(-c4ccccc4F)nn23)n1"
property_measured = "TAMRA EC1.5 (μM)"
recorded_measurement = "B (EC1.5 1-25 μM)"

[[record]]
smiles_str = "Cc1cc(NC(=O)c2cnc3ccc(-c4ccccc4Cl)nn23)ccn1"
property_measured = "TAMRA EC1.5 (μM)"
recorded_measurement = "B (EC1.5 1-25 μM)"

[[record]]
smiles_str = "Cc1cc(NC(=O)c2cnc3c(C)c(C)c(-c4ccccc4C(F)(F)F)nn23)cc(C)n1"
property_measured = "TAMRA EC1.5 (μM)"
recorded_measurement = "A (EC1.5<1 μM)"

[[record]]
smiles_str = "Cc1cc(C)nc(NC(=O)c2c(C)nc3ccc(-c4ccccc4OC[C@H](O)CO)nn23)c1"
property_measured = "TAMRA EC1.5 (μM)"
recorded_measurement = "B (EC1.5 1-25 μM)"

[[record]]
smiles_str = "COCc1nccc(NC(=O)c2c(C)nc3c(C)cc(-c4ccccc4C(F)(F)F)nn23)n1"
property_measured = "TAMRA EC1.5 (μM)"
recorded_measurement = "A (EC1.5<1 μM)"

[[record]]
smiles_str = "CCOc1ccc(NC(=O)c2c(C)nn3ccc(-c4ccccc4C(F)(F)F)nc23)nn1"
property_measured = "TAMRA EC1.5 (μM)"
recorded_measurement = "A (EC1.5<1 μM)"

[[record]]
smiles_str = "COc1ccc(NC(=O)c2c(C)nc3ccc(-c4cccc(OC(F)(F)F)c4)nn23)nn1"
property_measured = "TAMRA EC1.5 (μM)"
recorded_measurement = "A (EC1.5<1 μM)"

[[record]]
smiles_str = "O=C(Nc1cc(O)ncn1)c1cnn2ccc(-c3ccccc3C(F)(F)F)nc12"
property_measured = "TAMRA EC1.5 (μM)"
recorded_measurement = "A (EC1.5<1 μM)"

[[record]]
smiles_str = "Cc1cc(NC(=O)c2cnn3ccc(-c4ccccc4OC(F)(F)F)nc23)cc(C)n1"
property_measured = "TAMRA EC1.5 (μM)"
recorded_measurement = "A (EC1.5<1 μM)"

[[record]]
smiles_str = "Cc1cncc(NC(=O)c2c(C)nn3ccc(-c4ccccc4C(F)(F)F)nc23)n1"
property_measured = "TAMRA EC1.5 (μM)"
recorded_measurement = "A (EC1.5<1 μM)"


* * *

TARGET_OR_SYSTEM: SIRT1 (Homo sapiens, UniProt Q96EB6)
TEST_NAME: TAMRA based mass spectrometry assay of SIRT1 activity
Type: biochemical
RUN_CONDITIONS: TAMRA peptide substrate; concentration giving 150% activation of SIRT1
PROPERTY_MEASURED: TAMRA EC1.5

[[record]]
smiles_str = "Cc1nn2ccc(-c3ccccc3C(F)(F)F)nc2c1NC(=O)c1cccc(N2CCOCC2)n1"
recorded_measurement = "A (EC1.5<1 μM)"

[[record]]
smiles_str = "Cc1csc(NC(=O)c2cnn3ccc(-c4ccccc4C(F)(F)F)nc23)n1"
recorded_measurement = "A (EC1.5<1 μM)"

[[record]]
smiles_str = "Cc1cc2ncc(NC(=O)c3cscn3)n2nc1-c1ccccc1C(F)(F)F"
recorded_measurement = "A (EC1.5<1 μM)"

[[record]]
smiles_str = "Cc1cnc(C(=O)Nc2cnc3c(C)cc(-c4ccccc4C(F)(F)F)nn23)s1"
recorded_measurement = "A (EC1.5<1 μM)"

[[record]]
smiles_str = "COc1nccc(NC(=O)c2cnc3ccc(-c4ccccc4OC(F)(F)F)nn23)n1"
recorded_measurement = "A (EC1.5<1 μM)"

[[record]]
smiles_str = "O=C(Nc1cccc(N2CCOCC2)n1)c1cnc2ccc(N3CCC(F)(F)C3)nn12"
recorded_measurement = "B (EC1.5 1-25 μM)"

[[record]]
smiles_str = "Cc1cc(NC(=O)c2cnc3ccc(-c4ccccc4C(F)(F)F)nn23)cc(OC[C@@H](O)CO)n1"
recorded_measurement = "A (EC1.5<1 μM)"

[[record]]
smiles_str = "Cc1cc(C)nc(NC(=O)c2cnc3ccc(N4CC[C@@H](N(C)C)C4)nn23)c1"
recorded_measurement = "B (EC1.5 1-25 μM)"

[[record]]
smiles_str = "Cc1cc(NC(=O)c2c(C)nc3c(C)cc(-c4ccccc4C(F)(F)F)nn23)ccn1"
recorded_measurement = "A (EC1.5<1 μM)"

[[record]]
smiles_str = "O=C(Nc1ccncc1F)c1cnn2ccc(-c3ccccc3C(F)(F)F)nc12"
recorded_measurement = "B (EC1.5 1-25 μM)"

[[record]]
smiles_str = "COc1nccc(NC(=O)c2cnn3ccc(-c4ccccc4C(F)(F)F)nc23)n1"
recorded_measurement = "A (EC1.5<1 μM)"

[[record]]
smiles_str = "Cc1cc(NC(=O)c2c(C)nc3c(C)cc(-c4ccccc4OC(F)(F)F)nn23)ccn1"
recorded_measurement = "A (EC1.5<1 μM)"

[[record]]
smiles_str = "COc1nccc(NC(=O)c2c(C)nc3ccc(-c4ccccc4OC(F)(F)F)nn23)n1"
recorded_measurement = "A (EC1.5<1 μM)"

[[record]]
smiles_str = "O=C(Nc1cnccn1)c1cnn2ccc(-c3ccccc3OC(F)(F)F)nc12"
recorded_measurement = "A (EC1.5<1 μM)"

[[record]]
smiles_str = "O=C(Nc1cnc2ccc(-c3ccccc3C(F)(F)F)nn12)c1ncc(F)cc1F"
recorded_measurement = "A (EC1.5<1 μM)"

[[record]]
smiles_str = "Cc1nc2ccc(-c3ccccc3C(F)(F)F)nn2c1C(=O)Nc1cccnn1"
recorded_measurement = "A (EC1.5<1 μM)"


* * *

TARGET_OR_SYSTEM: SIRT1 (Homo sapiens, UniProt Q96EB6)
TEST_NAME: Trp mass spectrometry assay of SIRT1 activity
Assay type: biochemical
RUN_CONDITIONS: Trp assay; concentration giving 150% activation of SIRT1
PROPERTY_MEASURED: Trp EC1.5 (μM)

[[record]]
molecule = "Cc1cc2ncc(C(=O)Nc3ccccn3)n2nc1-c1ccccc1C(F)(F)F"
recorded_measurement = "B (EC1.5 1-25 μM)"

[[record]]
molecule = "Cc1ccc(NC(=O)c2c(C)nn3ccc(-c4ccccc4C(F)(F)F)nc23)c(C)n1"
recorded_measurement = "A (EC1.5<1 μM)"

[[record]]
molecule = "O=C(Nc1ncccn1)c1cnn2ccc(-c3ccccc3C(F)(F)F)nc12"
recorded_measurement = "B (EC1.5 1-25 μM)"

[[record]]
molecule = "CN(C)[C@H]1CCN(c2ccc3ncc(C(=O)Nc4ccccn4)n3n2)C1"
recorded_measurement = "B (EC1.5 1-25 μM)"

[[record]]
molecule = "Cc1cncc(NC(=O)c2cnc3ccc(N4CCCC(C(F)(F)F)C4)nn23)c1 (stereo not drawn)"
recorded_measurement = "A (EC1.5<1 μM)"

[[record]]
molecule = "O=C(Nc1cnc2ccc(-c3ccccc3Cl)nn12)c1cccc(N2CCC2)n1"
recorded_measurement = "A (EC1.5<1 μM)"

[[record]]
molecule = "Cc1nc2ccc(N3CC[C@H](N(C)C)C3)nn2c1C(=O)Nc1ccccn1"
recorded_measurement = "B (EC1.5 1-25 μM)"

[[record]]
molecule = "O=C(Nc1cnc2ccc(-c3ccccc3F)nn12)c1ccccn1"
recorded_measurement = "C (EC1.5>25 μM)"

[[record]]
molecule = "O=C(Nc1ccncn1)c1cnc2ccc(N3CC(F)(F)C3)nn12"
recorded_measurement = "C (EC1.5>25 μM)"


src = patent US9957271B2
